Experiment: amyloid nucleation score (Sup35N fusion, yeast selection) (log enrichment); library NNK1; higher = more nucleation; inactive = no reads after selection;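 also: zero at mode of non-aggregating sequences after 7 days selection at 30°C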
readout: amyloid nucleation score

- substance: "WFNRSICSPNSHNDSSRFNQ"
  amyloid nucleation score: "inactive"
- substance: "EWVGQFEYEGTTLWVYLVTL"
  amyloid nucleation score: -0.419
- substance: "WHEMKY"
  amyloid nucleation score: 1.46
- substance: "LYTHNSELNIKGSKVVHIEW"
  amyloid nucleation score: 0.489
- substance: "DTLLKF"
  amyloid nucleation score: 0.916

Let us move to another entry and its amyloid nucleation score.
Ask | # query: amyloid nucleation score of entry VEAMLTEPWRWH
Reply | -0.522

###

Assay: amyloid nucleation score (Sup35N fusion, yeast selection) (log enrichment); library NNK2; higher = more nucleation; inactive = no reads after selection
# amyloid nucleation score per record follows
Answer with a number only.

Before answering, review these 3 worked examples.
- substance: "KGCVMSY"
  amyloid nucleation score: -0.578
- substance: "SSNFRLSLWYSKMM"
  amyloid nucleation score: -0.246
- substance: "RECDKEFRQSSSCIDRRLGM"
  amyloid nucleation score: -0.156

Ask | Fill blank: measured amyloid nucleation score of the substance NFHGSASNCDAIVYANFTMH is ____.
Reply | 4.61

###

Experiment: amyloid nucleation score (Sup35N fusion, yeast selection) (log enrichment); library NNK2; higher = more nucleation; inactive = no reads after selection
readout: amyloid nucleation score

Use the examples below as a reference point.
- substance: "KNDFLNM"
  amyloid nucleation score: "inactive"
- substance: "IWIKNTSLLLLCRLSHCHNI"
  amyloid nucleation score: "inactive"
- substance: "LKMSHIYCSIIITAYLNWLV"
  amyloid nucleation score: "inactive"
- substance: "YLLYCVS"
  amyloid nucleation score: "inactive"

Ask | Name the reported amyloid nucleation score value associated with the substance WVVHLSSGIRNF
Reply | inactive

Ask | Query (substance): SQALCDGALYTHFAISSIDR ; field requested: amyloid nucleation score
Reply | inactive

###

Test: amyloid nucleation score (Sup35N fusion, yeast selection) (log enrichment); library NNK2; higher = more nucleation; inactive = no reads after selection
Label scheme for amyloid nucleation score: lower than 0.2 is f, 0.2 and above is t.

- substance: "NSNFCCVGLCTNFAWFVCLM"
  label-value: "t"
- substance: "GIRAVVL"
  label-value: "t"
- substance: "YRLIDVYWS"
  label-value: "f"
- substance: "LILRSVSNYAITIMFAFDTR"
  label-value: "t"

Ask | Hi, just wondering whether KDRSQGKCLLGQQRQ shows amyloid nucleation score of 0.2 or higher.
Reply | t

Ask | Determine whether this substance has amyloid nucleation score no lower than 0.2: NSIRSKDSDLRRYNPLPSTA
Reply | t

###

Experiment: amyloid nucleation score (Sup35N fusion, yeast selection) (log enrichment); library NNK1; higher = more nucleation; inactive = no reads after selection

- biosequence: "MYRYLPNSTLLSRVLDTSSY"
  amyloid nucleation score: "inactive"
- biosequence: "YIGRGNMHELFHRLLRGCVL"
  amyloid nucleation score: "inactive"
- biosequence: "VSSVGVDMMYLTTRGGCHSI"
  amyloid nucleation score: "inactive"

###

Assay: amyloid nucleation score (Sup35N fusion, yeast selection) (log enrichment); library NNK2; higher = more nucleation; inactive = no reads after selection

- substance: "DSEGSA"
  amyloid nucleation score: "inactive"
- substance: "IYVRLLDSDTSYWVQFVFLQ"
  amyloid nucleation score: "inactive"
- substance: "LFGTNFYVQDNIVKGRVLIM"
  amyloid nucleation score: "inactive"

###

Experiment: amyloid nucleation score (Sup35N fusion, yeast selection) (log enrichment); library NNK3; higher = more nucleation; inactive = no reads after selection
readout: amyloid nucleation score

Reference set, count: 4
- biosequence: "FNVGFLKWCFSMVGQGVDLH"
  reported: "inactive"
- biosequence: "MTLWDWDYRLIVRIQLRSTQ"
  reported: "inactive"
- biosequence: "NKFKHESNTNYIPSRQYKVW"
  reported: "inactive"
- biosequence: "IDLKGLGLYSTSEVWARQQK"
  reported: "inactive"

Ask | Can you share its amyloid nucleation score? I mean this sequence: RFYSARGGKRARIHVRVKWD
Reply | -0.446

Ask | I am curious: what amyloid nucleation score value has been reported for AYIDNRSYVCDALKCLW ?
Reply | 2.92

###

Experiment: amyloid nucleation score (Sup35N fusion, yeast selection) (log enrichment); library NNK3; higher = more nucleation; inactive = no reads after selection
readout: amyloid nucleation score
The reply should be a number, written without any unit.

- biosequence: "KMILRFFSI"
  amyloid nucleation score: 1.52

Read the next record carefully.
Ask | Recorded amyloid nucleation score for VNVMWKPLGLHIVPMFAFGK , please?
Reply | 1.13

###

Assay: amyloid nucleation score (Sup35N fusion, yeast selection) (log enrichment); library NNK3; higher = more nucleation; inactive = no reads after selection
readout: amyloid nucleation score
Response field accepts a number only; no unit should be typed.

- biosequence: "CNCVYSSANFCDIMYTNRLG"
  readout: "amyloid nucleation score"
  reported: 1.14

Field: next sequence
Ask | What value of amyloid nucleation score has been reported for the following sequence? KIWNCVYVGWNIVVNNIKGL
Reply | 2.66

###

Test: amyloid nucleation score (Sup35N fusion, yeast selection) (log enrichment); library NNK2; higher = more nucleation; inactive = no reads after selection
readout: amyloid nucleation score

Below: 4 sequences and their reported amyloid nucleation score.
- biosequence: "HSLLGPGPVPSYPQFSSPGR"
  reported: "inactive"
- biosequence: "NLFPSQTLYVFRHVGCCG"
  reported: "inactive"
- biosequence: "KSVASVMVYYALRIPYHIEC"
  reported: "inactive"
- biosequence: "SDFIMTLSERVVGASLNSCD"
  reported: "inactive"

Next, consider the following sequence.
Ask | Which amyloid nucleation score value is on record for NKRATALCNLHF ?
Reply | inactive

###

Experiment: amyloid nucleation score (Sup35N fusion, yeast selection) (log enrichment); library NNK2; higher = more nucleation; inactive = no reads after selection

- biosequence: "HCRYWVCCQLLVILTYSEAF"
  amyloid nucleation score: "inactive"
- biosequence: "SARVSWGCWHFAMYSRCIRQ"
  amyloid nucleation score: "inactive"
- biosequence: "SMGYYDLFELYPNRHGYYGF"
  amyloid nucleation score: "inactive"

###

Test: amyloid nucleation score (Sup35N fusion, yeast selection) (log enrichment); library NNK1; higher = more nucleation; inactive = no reads after selection

- biosequence: "GRSLSFLLIGKYWQYTTQAR"
  amyloid nucleation score: "inactive"
- biosequence: "GGLVYRLEKDSF"
  amyloid nucleation score: "inactive"
- biosequence: "TMIWFQLRTTLLNYQATVFL"
  amyloid nucleation score: "inactive"

###

Test: amyloid nucleation score (Sup35N fusion, yeast selection) (log enrichment); library NNK1; higher = more nucleation; inactive = no reads after selection

- biosequence: "QTVGGRFSSFY"
  amyloid nucleation score: "inactive"
- biosequence: "GKYILYDQCSNTINSGKLSI"
  amyloid nucleation score: "inactive"
- biosequence: "FWREHTMR"
  amyloid nucleation score: "inactive"

###

Experiment: amyloid nucleation score (Sup35N fusion, yeast selection) (log enrichment); library NNK2; higher = more nucleation; inactive = no reads after selection
Note to self: values exactly at 0.1 are satisfied. So amyloid nucleation score at or above 0.1 is satisfied, below is not satisfied.

Consider the following illustrative entries.
- substance: "DRPSCEFEPMFRRWDYSEGA"
  label-value: "satisfied"
- substance: "TFRRTVNGNMRGQMPTNWAF"
  label-value: "satisfied"
- substance: "GLRWNKFYKCTEVCMCRGSS"
  label-value: "satisfied"
- substance: "SDRMELWKNESRLYIGMAVR"
  label-value: "satisfied"
- substance: "CIFWLDYATFDTGLSLYMCE"
  label-value: "not satisfied"
- substance: "CGMRTEMTLGCLILAAGTWT"
  label-value: "satisfied"

Ask | Check the entry FECKVVILKCRLGYIFGANN : does amyloid nucleation score equal or exceed 0.1?
Reply | satisfied

Ask | Kindly determine if amyloid nucleation score recorded for TKCVFIVCRLYVFDMVGLYV is above or exactly 0.1.
Reply | not satisfied

Ask | Check if amyloid nucleation score >= 0.1 (inclusive). Item: SRIIMSFTSGLCDNHSKLKC
Reply | satisfied

Ask | Is reported amyloid nucleation score greater than or equal to 0.1 here: FFISLDRVMLTGLKLTCPLG
Reply | not satisfied

Ask | Check the entry CGRWVSGAWDGCGCGLGVLG : does amyloid nucleation score equal or exceed 0.1?
Reply | not satisfied

Ask | Entry LVFDRFDGNFNRSMSVAVRV : is its amyloid nucleation score no less than 0.1?
Reply | not satisfied

Ask | Is reported amyloid nucleation score greater than or equal to 0.1 here: SFEPFETLEREVPPPLTWPT
Reply | satisfied

Ask | Form field: amyloid nucleation score at least 0.1? Entry: SYFKSTSARCFSFYLCCAKT
Reply | satisfied
